Give Tubulin Polym. % inhibition at 0.3 uM for every item shown.
tested on: bovine microtubule-associated protein (MAP)-rich tubulin; assay type: biochemical; details: 0.3 uM
*1 amine or outer side, *2 acyl side, *3 side chain or, on linkers, in order; H or OH if unused. Where a SMILES comes first, the peptide text is derived from it. [ ]: non-standard residue; d: D form. The star is where a group is joined. NMePhe(3-Me,β,β-Me2) = CN[C@H](C(=O)O)C(C)(C)c1cccc(C)c1; X1 = C/C(=C\[C@H](C(C)C)N(C)[*:1])C(=O)[*:2]; Tle = CC(C)(C)[C@H](N)C(=O)O; NHBn = c1ccc(CN*)cc1
State just the number; it will be interpreted in %.

Specify measured Tubulin Polym. % inhibition at 0.3 uM for CN[C@H](C(=O)N[C@H](C(=O)N(C)[C@H](/C=C(\C)C(=O)N1CCOCC1)C(C)C)C(C)(C)C)C(C)(C)c1ccccc1 .
69

Specify measured Tubulin Polym. % inhibition at 0.3 uM for CCOC(=O)/C(C)=C/[C@H](C(C)C)N(C)C(=O)[C@@H](NC(=O)C(OC)C(C)(C)c1ccccc1)C(C)(C)C (stereo partly shown) .
38

Specify measured Tubulin Polym. % inhibition at 0.3 uM for CN[C@H](C(=O)N[C@H](C(=O)N(C)[C@H](/C=C(\C)C(=O)N1CCC[C@H]1[C@H](OC)[C@@H](C)C(=O)OC)C(C)C)C(C)(C)C)C(C)(C)c1ccccc1 .
45

Specify measured Tubulin Polym. % inhibition at 0.3 uM for CN[C@H](C(=O)N[C@H](C(=O)N(C)[C@H](/C=C(\C)C(=O)N1CCC[C@H]1[C@H](OC)[C@@H](C)C(=O)N1C(=O)O[C@@H](c2ccccc2)[C@H]1C)C(C)C)C(C)(C)C)C(C)(C)C1CCCCC1 .
82

Specify measured Tubulin Polym. % inhibition at 0.3 uM for CN[C@H](C(=O)N[C@H](C(=O)N(C)[C@H](/C=C1\NC(=O)NC1=O)C(C)C)C(C)(C)C)C(C)(C)c1ccccc1 .
59

Specify measured Tubulin Polym. % inhibition at 0.3 uM for CN[C@H](C(=O)N[C@H](C(=O)N(C)[C@H](/C=C(\C)C(=O)O)C(C)C)C(C)(C)C)C1(C)CCCc2ccccc21 (stereo partly shown) .
93

Specify measured Tubulin Polym. % inhibition at 0.3 uM for CN[C@@H](C(=O)N[C@H](C(=O)N(C)[C@H](/C=C(\C)C(=O)O)C(C)C)C(C)(C)C)C1(C)CCCc2ccccc21 (single isomer, unassigned) .
94

Specify measured Tubulin Polym. % inhibition at 0.3 uM for CN[C@H](C(=O)N[C@H](C(=O)N(C)[C@H](/C=C(\C)C(=O)N1CCN(Cc2ccccc2)CC1)C(C)C)C(C)(C)C)C(C)(C)c1cccc(Cl)c1 .
62

Specify measured Tubulin Polym. % inhibition at 0.3 uM for CN[C@H](C(=O)N[C@H](C(=O)N(C)[C@H](/C=C(\C)C(=O)N1CCN(C)CC1)C(C)C)C(C)(C)C)C(C)(C)c1ccc(C)c(C)c1 .
32

Specify measured Tubulin Polym. % inhibition at 0.3 uM for CCOS(=O)(=O)/C=C/[C@H](C(C)C)N(C)C(=O)[C@@H](NC(=O)[C@@H](NC)C(C)(C)c1ccccc1)C(C)(C)C .
42

Specify measured Tubulin Polym. % inhibition at 0.3 uM for CN[C@H](C(=O)N[C@H](C(=O)N(C)[C@H](/C=C(\C)C(=O)N1CCC[C@@H]1C(=O)N1CCC[C@@H]1C(=O)NCc1ccccc1)C(C)C)C(C)(C)C)C(C)(C)c1cccc(C)c1.O=C(O)C(F)(F)F [Example 9] (H-[NMePhe(3-Me,β,β-Me2)][Tle][X1][dP][dP]-NHBn) .
56

Specify measured Tubulin Polym. % inhibition at 0.3 uM for C/C(=C\[C@H](C(C)C)N(C)C(=O)[C@@H](NC(=O)C(C(C)(C)c1ccccc1)S(C)(=O)=O)C(C)(C)C)C(=O)O (stereo partly shown) .
80

Specify measured Tubulin Polym. % inhibition at 0.3 uM for CN[C@H](C(=O)N[C@H](C(=O)N(C)[C@H](/C=C(\C)C(=O)N1CCC[C@@H]1C(=O)O)C(C)C)C(C)(C)C)C(C)(C)c1ccccc1 .
91

Specify measured Tubulin Polym. % inhibition at 0.3 uM for CN[C@H](C(=O)N[C@H](C(=O)N(C)[C@H](/C=C(\C)C(=O)N1CCC[C@H]1C(=O)OC)C(C)C)C(C)(C)C)C(C)(C)c1ccc(C)c(C)c1 .
71

Specify measured Tubulin Polym. % inhibition at 0.3 uM for CCC(C(=O)N[C@H](C(=O)N(C)[C@H](/C=C(\C)C(=O)O)C(C)C)C(C)(C)C)C(C)(C)c1ccccc1 (stereo partly shown) .
54

Specify measured Tubulin Polym. % inhibition at 0.3 uM for CN[C@@H](C(=O)N[C@H](C(=O)N(C)[C@H](/C=C(\C)C(=O)N1CCOCC1)C(C)C)C(C)(C)C)C(C)(C)c1cc(C)cc(C)c1 .
57

Specify measured Tubulin Polym. % inhibition at 0.3 uM for C/C(=C\[C@H](C(C)C)N(C)C(=O)[C@@H](NC(=O)[C@@H](N(C)C)C(C)(C)c1ccccc1)C(C)(C)C)C(=O)N1CCN(Cc2ccccc2)CC1 .
77

Specify measured Tubulin Polym. % inhibition at 0.3 uM for CN[C@H](C(=O)N[C@H](C(=O)N(C)[C@H](/C=C(\C)C(=O)N1CCC[C@H]1C(=O)O)C(C)C)C(C)(C)C)C(C)(C)c1cccc(Cl)c1 .
94
